We begin with a simple list: items and their reported glycan array binding signal (z-score).
- system: Fuc(a1-2)Gal(b1-4)Glc
- procedure.details: glycan array binding signal (z-score within array); higher = stronger binding
- run.parameters: glycan notation: IUPAC condensed, linker removed
Many of the other results were omitted from the sample, so the strongest signals are more common in it than they were.
A bare number is all that is needed in reply.

binder	glycan array binding signal (z-score)
Dectin2 (Homo sapiens), Q6EIG7 (protein) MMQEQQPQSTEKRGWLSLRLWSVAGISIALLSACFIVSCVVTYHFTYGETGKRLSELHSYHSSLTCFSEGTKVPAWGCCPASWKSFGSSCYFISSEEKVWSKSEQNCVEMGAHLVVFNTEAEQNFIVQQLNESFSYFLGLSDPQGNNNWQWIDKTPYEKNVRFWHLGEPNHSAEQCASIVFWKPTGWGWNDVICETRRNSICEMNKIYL	-0.165
DCIR (Homo sapiens), Q9UMR7 (protein) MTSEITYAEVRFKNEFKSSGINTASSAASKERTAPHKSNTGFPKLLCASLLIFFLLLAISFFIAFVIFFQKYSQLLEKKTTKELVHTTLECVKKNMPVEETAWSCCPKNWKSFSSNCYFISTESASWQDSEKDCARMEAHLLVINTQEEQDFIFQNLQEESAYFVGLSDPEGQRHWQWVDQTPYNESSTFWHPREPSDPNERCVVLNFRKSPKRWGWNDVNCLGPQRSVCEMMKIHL	-0.479

Next, consider the following binder.
The binder identified as RegIIIbeta (Mus musculus), P35230 (protein) MLPPTACSVMSWMLLSCLMLLSQVQGEDSLKNIPSARISCPKGSQAYGSYCYALFQIPQTWFDAELACQKRPGGHLVSVLNSAEASFLSSMVKRTGNSYQYTWIGLHDPTLGAEPNGGGWEWSNNDVMNYFNWERNPSTALDRAFCGSLSRASGFLKWRDMTCEVKLPYVCKFTG registered its glycan array binding signal (z-score) at -0.114

Source of measurements: the supplement of paper PMC8728848
